Target Desc: human A3AR (Homo sapiens, UniProt P0DMS8)
Construct: expressed in transfected cells
Procedure Summary: LOPAC library primary screen: single concentration (10 μM) inhibition of 25 nM CA200645 binding, PHERAstar FS
Readings of % 25 nM CA200645 binding for the listed molecules
Give a bare numeral; the unit % is implied.

Molecule: CCCCCCCCCCC/C=C\C(C)(C)/C=C\CCCC(=O)O [7,7-Dimethyl-(5Z,8Z)-eicosadienoic acid]
Observed Property: % 25 nM CA200645 binding
Unit Descriptor: %
Measured Result: 100.3

% 25 nM CA200645 binding recorded for this molecule, O=c1c(-c2ccc(O)cc2)coc2cc(O)ccc12 [Daidzein] , is 88.9

// CCc1cc(Cl)c(O)c(C(=O)NC[C@@H]2CCCN2CC)c1OC.Cl [S-(-)-Eticlopride hydrochloride] : % 25 nM CA200645 binding value = 96.8

Kindly note the recorded % 25 nM CA200645 binding for C=C(C)[C@H]1CC=C(C(=O)O)CC1 [(-)-Perillic acid] , which is 115.8

###

Target Desc: human A3AR (Homo sapiens, UniProt P0DMS8)
Construct: expressed in transfected cells
Procedure Summary: LOPAC library primary screen: single concentration (10 μM) inhibition of 25 nM CA200645 binding, PHERAstar FS
Observed Property: % 25 nM CA200645 binding (%)
Reply numerically in %, unit not repeated.

Please review the entries below; each comes with its answer.
Molecule: CN(C)C(=O)Oc1ccc[n+](C)c1 [Pyridostigmine bromide]
Observed Property: % 25 nM CA200645 binding
Measured Result: 92.0

Molecule: CC(C)NCC(O)COc1cccc2[nH]ccc12 (stereo not drawn) [S(-)-Pindolol]
Observed Property: % 25 nM CA200645 binding
Measured Result: 98.0

Molecule: CC[C@H]1OC(=O)[C@H](C)[C@@H](O[C@H]2C[C@@](C)(OC)[C@@H](O)[C@H](C)O2)[C@H](C)[C@@H](O[C@@H]2O[C@H](C)C[C@H](N(C)C)[C@H]2O)[C@](C)(O)C[C@@H](C)CN(C)[C@H](C)[C@@H](O)[C@]1(C)O [Azithromycin dihydrate]
Observed Property: % 25 nM CA200645 binding
Measured Result: 98.9

Molecule: CCN(CC)CCOc1ccc(Nc2ncc3cc(-c4c(Cl)cccc4Cl)c(=O)n(C)c3n2)cc1.O [PD-166285 hydrate]
Observed Property: % 25 nM CA200645 binding
Measured Result: 108.1

Molecule: O=C(O)Cc1ccccc1Nc1c(Cl)cccc1Cl [Diclofenac sodium]
Observed Property: % 25 nM CA200645 binding
Measured Result: 100.0

Molecule: COc1cccc(NC(=O)/C=C/c2ccc(Cl)cc2)c1
Observed Property: % 25 nM CA200645 binding
Measured Result: 92.0

Looking up CCCCCCCCCCCCCCCCCC(=O)OC(CC(=O)O)C[N+](C)(C)C.[Cl-] (racemic) [DL-Stearoylcarnitine chloride] , I found its % 25 nM CA200645 binding recorded as 44.2

Recorded % 25 nM CA200645 binding (molecule Cc1cccc(C)c1OCC(C)N.Cl (stereo not drawn) [Mexiletene hydrochloride] ): 99.4

get_value(item= "CCCn1c(=O)[nH]c(=O)c2nc[nH]c21" , readout=% 25 nM CA200645 binding) returns 101.0

###

Target Desc: human A3AR (Homo sapiens)
Construct: expressed in transfected cells
Procedure Summary: LOPAC library primary screen: single concentration (10 μM) inhibition of 25 nM CA200645 binding, PHERAstar FS
Each entry below lists one item and its recorded % 25 nM CA200645 binding value.
Form entry: value (%) — number only.

Compound: CC(C)OC(=O)C(C)(C)Oc1ccc(C(=O)c2ccc(Cl)cc2)cc1 [Fenofibrate]
Target Desc: human A3AR (Homo sapiens)
% 25 nM CA200645 binding [%]: 87.6

Compound: CCC(NC(C)C)C(O)c1ccc(O)c(O)c1.CS(=O)(=O)O (stereo not shown) [Isotharine mesylate]
Target Desc: human A3AR (Homo sapiens)
% 25 nM CA200645 binding [%]: 102.1

Compound: N=C(N)NC(=N)Nc1ccccc1 [1-Phenylbiguanide]
Target Desc: human A3AR (Homo sapiens)
% 25 nM CA200645 binding [%]: 96.2

We next turn to a different compound, shown below.
Form field % 25 nM CA200645 binding, entry CN1CCC(c2c[nH]c3ccc(O)cc23)CC1.O=C(O)/C=C\C(=O)O [BRL 54443 maleate] : 102.8

###

Target Desc: human A3AR (Homo sapiens, UniProt P0DMS8)
Construct: expressed in transfected cells
Sequence (P0DMS8 1-318): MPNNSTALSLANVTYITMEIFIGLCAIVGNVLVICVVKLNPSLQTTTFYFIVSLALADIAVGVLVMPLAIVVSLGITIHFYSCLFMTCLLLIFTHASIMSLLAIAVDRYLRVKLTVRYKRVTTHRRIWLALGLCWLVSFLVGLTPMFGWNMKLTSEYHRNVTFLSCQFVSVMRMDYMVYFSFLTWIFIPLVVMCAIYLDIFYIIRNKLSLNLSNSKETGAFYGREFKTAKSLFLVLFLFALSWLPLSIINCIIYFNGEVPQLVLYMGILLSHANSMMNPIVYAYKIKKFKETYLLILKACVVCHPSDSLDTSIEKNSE
Procedure Summary: LOPAC library primary screen: single concentration (10 μM) inhibition of 25 nM CA200645 binding, PHERAstar FS
Where a name gives a salt, the structure may show the parent alone.
Observed Property: % 25 nM CA200645 binding (%)
Give just the number in %; leave the unit off.

Sample records with % 25 nM CA200645 binding:
Molecule: O=C(O)CCC(=O)O.c1ccc(C2(c3ccccc3)CC2C2=NCCN2)cc1 (centres unmarked) [Cibenzoline succinate]
% 25 nM CA200645 binding, %: 95.2
--
Molecule: CCN(CC)CCNC(=O)c1cc(Cl)c(N)cc1OC.Cl [Metoclopramide hydrochloride]
% 25 nM CA200645 binding, %: 106.5
--
Molecule: N=C(N)c1ccc(OCCCCCOc2ccc(C(=N)N)cc2)cc1 [Pentamidine isethionate]
% 25 nM CA200645 binding, %: 100.3
--
Molecule: O=C1C=CC(=O)C=C1
% 25 nM CA200645 binding, %: 85.9
--
Molecule: O=C(Nc1cccc(C(=O)Nc2ccc(S(=O)(=O)O)c3cc(S(=O)(=O)O)cc(S(=O)(=O)O)c23)c1)Nc1cccc(C(=O)Nc2ccc(S(=O)(=O)O)c3cc(S(=O)(=O)O)cc(S(=O)(=O)O)c23)c1
% 25 nM CA200645 binding, %: 83.8
--
Molecule: CC(CCc1ccc(O)cc1)NCCc1ccc(O)c(O)c1 (centres unmarked) [Dobutamine hydrochloride]
% 25 nM CA200645 binding, %: 101.9

The value of % 25 nM CA200645 binding recorded for NCC(CC(=O)O)c1ccc(Cl)cc1 (racemic) [(±)-Baclofen] when tested on human A3AR (Homo sapiens, UniProt P0DMS8) reads 99.6

For the molecule "CN(C)C(=O)[C@H](O)[C@H](Cc1ccccc1)NC(=O)c1cc2cc(Cl)ccc2[nH]1" , the measured % 25 nM CA200645 binding on human A3AR (Homo sapiens, UniProt P0DMS8) was 87.6

Bench note, human A3AR (Homo sapiens, UniProt P0DMS8): entry "O=C(c1ccc(Cl)cc1)N1CCN(c2ccc([N+](=O)[O-])c3ncccc23)CC1" , its % 25 nM CA200645 binding = 83.4

Form field, % 25 nM CA200645 binding with human A3AR (Homo sapiens, UniProt P0DMS8), item CCCN(CCC)CCc1cccc2c1CC(=O)N2 [Ropinirole hydrochloride] : 107.5

###

Target Desc: human A3AR (Homo sapiens)
Construct: expressed in transfected cells
Sequence (P0DMS8 1-318): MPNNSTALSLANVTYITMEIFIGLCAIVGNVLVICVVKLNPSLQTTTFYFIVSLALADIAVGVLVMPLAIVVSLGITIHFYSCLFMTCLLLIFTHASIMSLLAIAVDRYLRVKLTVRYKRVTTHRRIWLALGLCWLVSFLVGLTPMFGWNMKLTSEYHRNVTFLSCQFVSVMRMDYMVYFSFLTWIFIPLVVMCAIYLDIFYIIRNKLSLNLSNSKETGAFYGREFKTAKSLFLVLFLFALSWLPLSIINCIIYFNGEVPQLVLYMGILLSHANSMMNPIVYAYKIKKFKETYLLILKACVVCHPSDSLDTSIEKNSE
Procedure Summary: LOPAC library primary screen: single concentration (10 μM) inhibition of 25 nM CA200645 binding, PHERAstar FS
Listing: % 25 nM CA200645 binding of selected compounds
Write the answer as a number in %, unit excluded.

// worked examples, % 25 nM CA200645 binding included
Compound: N[C@@H](CS(=O)O)C(=O)O
Unit Descriptor: %
% 25 nM CA200645 binding: 83.6
//
Compound: Br.CCCN(CCC)[C@@H]1CCc2cccc(O)c2C1 [R-(+)-8-Hydroxy-DPAT hydrobromide]
Unit Descriptor: %
% 25 nM CA200645 binding: 83.0
//
Compound: Br.CN1CCc2cc(O)cc3c2[C@H]1Cc1ccc(O)c(O)c1-3
Unit Descriptor: %
% 25 nM CA200645 binding: 83.0
//
Compound: CNC(=O)Oc1ccc2c(c1)[C@]1(C)CCN(C)[C@@H]1N2C [(-)-Physostigmine]
Unit Descriptor: %
% 25 nM CA200645 binding: 99.3

Entry O=C(O)C1CCCNC1 (racemic) [(±)-Nipecotic acid] , % 25 nM CA200645 binding reported as 101.9
